Test system: Fibroblast
Assay: Multiplex assay against human fibroblast
Format: toxicity, cell-based
Details: 12 h, 1 µM, compound concentration 1 uM, replicate 2
Population Mitochondria Different-Phenotype (%) values, listed per item
Reported Metric: Population Mitochondria Different-Phenotype (%)

Compound: CCOc1c2c(c(OCC)c3ncccc13)CN(c1ccc(CS(=O)(=O)NC(=O)Cc3ccccc3OC)cc1C)C2=O
Measured Value: 2
--
Compound: N#Cc1c(N)nc(SCc2csc(-c3ccc(Cl)cc3)n2)c(C#N)c1-c1ccc(OCCO)cc1
Measured Value: 11
--
Compound: N[C@@]1(C(=O)O)CO[C@H]2[C@H](C(=O)O)[C@H]21
Measured Value: 1
--
Compound: Cc1ccc(F)cc1C(=O)Nc1ccc(C(=O)N2Cc3cccn3Cc3ccccc32)c(Cl)c1
Measured Value: 9
--
Compound: CSc1ccccc1N1CCN(CCCCCC(=O)NC2CCCc3ccccc32)CC1.Cl (centres undefined)
Measured Value: 7
--
Compound: O=S(=O)(c1ccccc1)c1cnc2c(N3CCNCC3)cccc2c1 [INTEPIRDINE]
Measured Value: 7
--
Compound: CN1CCN(c2nc3cc(C(F)(F)F)ccc3n3cccc23)CC1.O=C(O)/C=C\C(=O)O.O=C(O)/C=C\C(=O)O
Measured Value: 4
--
Compound: CC(=O)NCCc1c(Cc2ccccc2)[nH]c2ccccc12
Measured Value: 11
--
Compound: Cl.Clc1ccc2nsnc2c1NC1=NCCN1 [TIZANIDINE HYDROCHLORIDE]
Measured Value: 5

Hey, just so you know, these numbers are from ChEMBL document CHEMBL5058577.
